Tested on: Pseudomonas aeruginosa
Assay: Antimicrobial activity against SHV-12 ESBL non-producing Pseudomonas aeruginosa isolate 2202 isolated from burn patient by broth microdilution method in presence of beta-lactamase inhibitor clavulanic acid
REPORTED PROPERTY: MIC (µg/mL)
Report the figure in µg/mL without appending any unit label.

Lookup: Any idea what MIC was measured for CCN1CCN(C(=O)N[C@@H](C(=O)N[C@@H]2C(=O)N3[C@@H]2SC(C)(C)[C@@H]3C(=O)O)c2ccccc2)C(=O)C1=O ?
Found: 32

Lookup: Note, next up: CC1(C)S[C@@H]2[C@H](NC(=O)[C@H](C(=O)O)c3ccsc3)C(=O)N2[C@H]1C(=O)O
Found: 32

Lookup: Now the same for CO/N=C(\C(=O)N[C@@H]1C(=O)N2C(C(=O)O)=C(COC(C)=O)CS[C@H]12)c1csc(N)n1
Found: 256

Lookup: Also check CC(C)(O/N=C(\C(=O)N[C@@H]1C(=O)N2C(C(=O)[O-])=C(C[n+]3ccccc3)CS[C@H]12)c1csc(N)n1)C(=O)O
Found: 16

====

Exercise: state measured MIC for each of the compounds provided.
Test system: Pseudomonas aeruginosa
Assay: Antimicrobial activity against SHV-12 ESBL non-producing Pseudomonas aeruginosa isolate 2203 isolated from burn patient by broth microdilution method in presence of beta-lactamase inhibitor clavulanic acid

Lookup: Which measured MIC value corresponds to CC1(C)S[C@@H]2[C@H](NC(=O)[C@H](C(=O)O)c3ccsc3)C(=O)N2[C@H]1C(=O)O ?
Found: 32 µg/mL

Lookup: Note, next up: CCN1CCN(C(=O)N[C@@H](C(=O)N[C@@H]2C(=O)N3[C@@H]2SC(C)(C)[C@@H]3C(=O)O)c2ccccc2)C(=O)C1=O
Found: 16 µg/mL

Lookup: Also check CC(C)(O/N=C(\C(=O)N[C@@H]1C(=O)N2C(C(=O)[O-])=C(C[n+]3ccccc3)CS[C@H]12)c1csc(N)n1)C(=O)O
Found: 8 µg/mL

Lookup: Subsequent entry: CO/N=C(\C(=O)N[C@@H]1C(=O)N2C(C(=O)O)=C(COC(C)=O)CS[C@H]12)c1csc(N)n1
Found: 128 µg/mL

====

Tested on: Pseudomonas aeruginosa
Assay: Antimicrobial activity against SHV-12 ESBL producing Pseudomonas aeruginosa isolate 2202 isolated from burn patient by broth microdilution method
Assay type: functional
Would you mind telling me the reported MIC of each entry?
Report the figure in µg/mL without appending any unit label.

Lookup: // query MIC value for entry CO/N=C(\C(=O)N[C@@H]1C(=O)N2C(C(=O)O)=C(COC(C)=O)CS[C@H]12)c1csc(N)n1
Found: 256

Lookup: # repeat for CC(C)(O/N=C(\C(=O)N[C@@H]1C(=O)N2C(C(=O)[O-])=C(C[n+]3ccccc3)CS[C@H]12)c1csc(N)n1)C(=O)O
Found: 16

Lookup: CC1(C)S[C@@H]2[C@H](NC(=O)[C@H](C(=O)O)c3ccsc3)C(=O)N2[C@H]1C(=O)O ?
Found: 32

Lookup: Similarly, NCC[C@H](O)C(=O)N[C@@H]1C[C@H](N)[C@@H](O[C@H]2O[C@H](CN)[C@@H](O)[C@H](O)[C@H]2O)[C@H](O)[C@H]1O[C@H]1O[C@H](CO)[C@@H](O)[C@H](N)[C@H]1O ?
Found: 4

Lookup: Same again, this time with CCN1CCN(C(=O)N[C@@H](C(=O)N[C@@H]2C(=O)N3[C@@H]2SC(C)(C)[C@@H]3C(=O)O)c2ccccc2)C(=O)C1=O
Found: 32

====

Test system: Pseudomonas aeruginosa
Experiment: Antimicrobial activity against SHV-12 ESBL producing Pseudomonas aeruginosa isolate 2206 isolated from burn patient by broth microdilution method
Format: functional
REPORTED PROPERTY: MIC (µg/mL)
Write the value in µg/mL as a bare number.

Lookup: Recorded MIC for C[C@H]1[C@H](NC(=O)/C(=N\OC(C)(C)C(=O)O)c2csc(N)n2)C(=O)N1S(=O)(=O)O with Pseudomonas aeruginosa, please?
Found: 512

Lookup: Please answer likewise for CCN1CCN(C(=O)N[C@@H](C(=O)N[C@@H]2C(=O)N3[C@@H]2SC(C)(C)[C@@H]3C(=O)O)c2ccccc2)C(=O)C1=O
Found: 512

Lookup: // same read-out, input: CO/N=C(\C(=O)N[C@@H]1C(=O)N2C(C(=O)[O-])=C(C[N+]3(C)CCCC3)CS[C@H]12)c1csc(N)n1
Found: 512

====

System: Pseudomonas aeruginosa
Experiment: Antimicrobial activity against SHV-12 ESBL producing Pseudomonas aeruginosa isolate 2206 isolated from burn patient by broth microdilution method
Assay type: functional
Task for the reader: assign each of the following compounds its reported MIC.
Number only, in µg/mL; omit the unit.

Lookup: Provide value of MIC for this record tested with Pseudomonas aeruginosa: NCC[C@H](O)C(=O)N[C@@H]1C[C@H](N)[C@@H](O[C@H]2O[C@H](CN)[C@@H](O)[C@H](O)[C@H]2O)[C@H](O)[C@H]1O[C@H]1O[C@H](CO)[C@@H](O)[C@H](N)[C@H]1O
Found: 128

Lookup: Can you handle CO/N=C(\C(=O)N[C@@H]1C(=O)N2C(C(=O)O)=C(COC(C)=O)CS[C@H]12)c1csc(N)n1 next?
Found: 512

Lookup: Input CC(C)(O/N=C(\C(=O)N[C@@H]1C(=O)N2C(C(=O)[O-])=C(C[n+]3ccccc3)CS[C@H]12)c1csc(N)n1)C(=O)O
Found: 512

====

Tested on: Pseudomonas aeruginosa
Test: Antimicrobial activity against SHV-12 ESBL non-producing Pseudomonas aeruginosa isolate 2204 isolated from burn patient by broth microdilution method in presence of beta-lactamase inhibitor clavulanic acid
For each entry below, report its MIC value.
Supply the numeric figure in µg/mL, leaving out any unit text.

Lookup: Data request, read-out MIC, for CC(C)(O/N=C(\C(=O)N[C@@H]1C(=O)N2C(C(=O)[O-])=C(C[n+]3ccccc3)CS[C@H]12)c1csc(N)n1)C(=O)O
Found: 4

Lookup: And CCN1CCN(C(=O)N[C@@H](C(=O)N[C@@H]2C(=O)N3[C@@H]2SC(C)(C)[C@@H]3C(=O)O)c2ccccc2)C(=O)C1=O ?
Found: 16

Lookup: CC1(C)S[C@@H]2[C@H](NC(=O)[C@H](C(=O)O)c3ccsc3)C(=O)N2[C@H]1C(=O)O ?
Found: 64

Lookup: Follow-up item: CO/N=C(\C(=O)N[C@@H]1C(=O)N2C(C(=O)O)=C(COC(C)=O)CS[C@H]12)c1csc(N)n1
Found: 64
